# Test system: Klebsiella pneumoniae
# assay-notes: Antibacterial activity against extended-spectrum beta-lactamase-positive Klebsiella pneumoniae (14-2081) assessed as inhibition of microbial growth up to 50 ug/ml incubated for 24 hrs by microdilution assay
# Format: functional
Calls of active or inactive are those of the source. The rule behind the calls is not given here.
quantity-kind: Activity

>>> print(df.to_string())
                                    molecule           study_target  measured_result
 0  COc1cc(C[C@@H](C)[C@@H](C)Cc2ccc(OC(=O)c3ccc(Br)cc3)c(OC)c2)ccc1O (racemic)  Klebsiella pneumoniae         inactive
 1  COc1cc(C[C@@H](C)[C@@H](C)Cc2ccc(OC(=O)c3cccnc3)c(OC)c2)ccc1O (racemic)  Klebsiella pneumoniae         inactive
 2  COc1cc(C[C@@H](C)[C@@H](C)Cc2ccc(OC(=O)c3ccccc3)c(OC)c2)ccc1O (racemic)  Klebsiella pneumoniae         inactive
 3  COc1cc(C[C@@H](C)[C@@H](C)Cc2ccc(OC(C)=O)c(OC)c2)ccc1OC(C)=O  Klebsiella pneumoniae         inactive
 4  COc1cc(C[C@@H](C)[C@@H](C)Cc2ccc(OC(=O)c3cnccn3)c(OC)c2)ccc1O (racemic)  Klebsiella pneumoniae         inactive
 5  CCCC(=O)Oc1ccc(C[C@H](C)[C@H](C)Cc2ccc(O)c(OC)c2)cc1OC (racemic)  Klebsiella pneumoniae         inactive
 6  CCCCCCCC/C=C\CCCCCCCC(=O)Oc1ccc(C[C@@H](C)[C@@H](C)Cc2ccc(OC(=O)CCCCCCC/C=C\CCCCCCCC)c(OC)c2)cc1OC  Klebsiella pneumoniae         inactive
 7  COc1cc(C[C@@H](C)[C@@H](C)Cc2ccc(OC)c(OC)c2)ccc1O (racemic)  Klebsiella pneumoniae         inactive
 8  COc1cc(C[C@@H](C)[C@@H](C)Cc2ccc(OCCN3CCCC3)c(OC)c2)ccc1OCCN1CCCC1  Klebsiella pneumoniae         inactive
 9  CCCCCCCCCCCCCCCCCC(=O)Oc1ccc(C[C@@H](C)[C@@H](C)Cc2ccc(OC(=O)CCCCCCCCCCCCCCCCC)c(OC)c2)cc1OC  Klebsiella pneumoniae         inactive
10  COc1cc(C[C@@H](C)[C@@H](C)Cc2ccc(OC(=O)c3cnccn3)c(OC)c2)ccc1OC(=O)c1cnccn1  Klebsiella pneumoniae         inactive
11  COc1cc(C[C@@H](C)[C@@H](C)Cc2ccc(OCCN(C)C)c(OC)c2)ccc1O (racemic)  Klebsiella pneumoniae         inactive
12  COc1cc(C[C@@H](C)[C@@H](C)Cc2ccc(OC(=O)c3ccccn3)c(OC)c2)ccc1O (racemic)  Klebsiella pneumoniae         inactive
13  COc1cc(C[C@@H](C)[C@@H](C)Cc2ccc(OCCN3CCCCC3)c(OC)c2)ccc1OCCN1CCCCC1  Klebsiella pneumoniae         inactive
14  COc1cc(C[C@@H](C)[C@@H](C)Cc2ccc(OCCN3CCOCC3)c(OC)c2)ccc1OCCN1CCOCC1  Klebsiella pneumoniae         inactive
15  COc1cc(C[C@@H](C)[C@@H](C)Cc2ccc(OC(C)=O)c(OC)c2)ccc1O (racemic)  Klebsiella pneumoniae         inactive
16  CCCC(=O)Oc1ccc(C[C@@H](C)[C@@H](C)Cc2ccc(OC(=O)CCC)c(OC)c2)cc1OC  Klebsiella pneumoniae         inactive
17  COc1cc(C[C@@H](C)[C@@H](C)Cc2ccc(OC(=O)c3cccnc3)c(OC)c2)ccc1OC(=O)c1cccnc1  Klebsiella pneumoniae         inactive

The values you see were collected from ChEMBL document CHEMBL4043204.
